pIC50 values for HPK1 (Homo sapiens (Human)), compiled from several publications.
pIC50: −log10 of the molar value.

*Q* # input molecule: CCNC(=O)c1ccc(Nc2ccc(-c3cnc4cc(F)ccn34)c3c2C(=O)NC3)nc1CN(C)C ; wanted: its pIC50
*A* > 7.00

*Q* # input molecule: COc1cc2c(cc1Nc1ncc3c(N)c(F)c(-c4ccccc4-c4ccnn4C)cc3n1)CN(C)CC2 ; wanted: its pIC50
*A* 7.78

*Q* # input molecule: COc1cccc(F)c1-n1nc(C(=O)Nc2ccc3c(nc(C)n3C)c2N2CC[C@H](N)C2)ccc1=O ; wanted: its pIC50
*A* > 7.00

*Q* # input molecule: NC(=O)c1cnc(Nc2ccc(F)c(C(F)(F)F)c2)nc1Nc1cccc2c1CCNC2=O ; wanted: its pIC50
*A* 7.16

*Q* # input molecule: CC1(C)c2cc(N3CCOCC3)ccc2Nc2c1cc(-c1cncc(N3CCOCC3)c1)c1c2C(=O)NC1 ; wanted: its pIC50
*A* 7.44

*Q* # input molecule: Cc1c(-c2cc3nc(Nc4ccc(C(C)S(C)(=O)=O)cc4)ncc3c(N)c2F)cnc2c1NCCO2 (single isomer, unassigned) ; wanted: its pIC50
*A* 10.06

---

pIC50 values for HPK1 (Homo sapiens (Human), UniProt Q92918), compiled from several publications.
pIC50: −log10 of the molar value.

Below: 3 compounds and their reported pIC50.
Cc1ccn2c(-c3ccc(Nc4ccc(C5(O)CCOCC5)cn4)c4c3CNC4=O)cnc2c1F    > 7.00
COc1cc(-c2cnc3[nH]cc(-c4ccc(C(=O)N5CC6(COC6)C5)cc4)c3n2)cc2c1CN(C)CC2    7.77
CN1CCN2c3ccc(-c4n[nH]c5cc(C#N)c(-c6cncnc6)cc45)cc3OCC2C1 (stereo not shown)    ≥ 8.00

*Q* # input compound: COc1cccn2c(-c3ccc(Nc4ccc(N5CCC(O)CC5)cn4)c4c3CNC4=O)cnc12 ; wanted: its pIC50
*A* > 7.00

*Q* # input compound: CN1CC(O)(C2CCCN(c3ccc(Nc4ccc(-c5cnc6cc(F)ccn56)c5c4C(=O)NC5)nc3)C2)C1 (stereo in doubt) ; wanted: its pIC50
*A* > 7.00

*Q* # input compound: CN1C[C@@H]2CCN(c3cccc(Nc4cnc(-c5ccnc6c5ccn6C)c5c4C(=O)NC5)n3)[C@@H]2C1 ; wanted: its pIC50
*A* > 7.00

---

IC50 values for HPK1 (Homo sapiens (Human), UniProt Q92918), compiled from several publications.

Below: 4 compounds and their reported IC50.
Cc1cccc(F)c1-n1nc2c(-c3ccc(N4CCN(C)CC4)c(CN(C)C)c3)n[nH]c2cc1=O    0.05 to 0.5 µM
COc1cc2c(cc1Nc1ncc(C(N)=O)c(Nc3cccc4c3CCN(C)C4=O)n1)CN(C)CC2    0.00149 µM
COc1cc2c(cc1Nc1ncc3ccc(-c4cccc(S(=O)(=O)N5CCCCC5)c4)cc3n1)CNCC2    0.0152 µM
Cc1cc(F)c(-c2cc(Nc3ccc(N4CCC(O)CC4)cn3)c3c(=O)[nH]ccc3n2)cc1C    0.1 to 1 µM

*Q* # input compound: COc1cc2c(cc1Nc1ncc3ccc(-c4cccc(CC#N)c4)cc3n1)CNCC2 ; wanted: its IC50
*A* 0.0528 µM

*Q* # input compound: CN1C[C@@H](c2ccc(Nc3ccc(-c4cnc5cnccn45)c4c3C(=O)NC4)nc2)CCC1=O ; wanted: its IC50
*A* < 0.1 µM

*Q* # input compound: Cc1ccc(NC(=O)c2cc(C(F)(F)F)ccn2)cc1C1=Cc2cnc(Nc3ccccc3F)nc2N2CCN=C12 ; wanted: its IC50
*A* < 0.1 µM

*Q* # input compound: CN1CCN(c2ccc(-c3n[nH]c4cc(=O)n(-c5c(F)cccc5C5CC5)nc34)cc2)CC1 ; wanted: its IC50
*A* ≤ 0.05 µM

*Q* # input compound: CN(C)Cc1nc(Nc2ccc(-c3cnc4cnccn34)c3c2C(=O)NC3)ccc1[C@@H]1CCOC1 ; wanted: its IC50
*A* < 0.1 µM

*Q* # input compound: Cc1c[nH]c(=O)c2c(Nc3ccc(N4CCC(O)CC4)cn3)cc(-c3c(F)cccc3F)nc12 ; wanted: its IC50
*A* 0.1 to 1 µM

*Q* # input compound: O=C1NCc2c(-c3cnc4ccccn34)ncc(Nc3ccc(N4CCNCC4)cn3)c21 ; wanted: its IC50
*A* < 0.1 µM

*Q* # input compound: O=c1[nH]ccc2nc(N3CC[C@H](O)C3)cc(Nc3ccc(N4CCC(O)CC4)cn3)c12 ; wanted: its IC50
*A* ≤ 0.1 µM

*Q* # input compound: CN1CCN2c3ccc(-c4n[nH]c5cc(C#N)c(-c6cccc(C#N)c6F)cc45)cc3OCC2C1 (stereo not shown) ; wanted: its IC50
*A* ≤ 0.01 µM

*Q* # input compound: Cc1ccncc1-c1cc(Nc2ccc(N3CCC(O)CC3)cn2)c2c(=O)[nH]ccc2n1 ; wanted: its IC50
*A* ≤ 0.1 µM

*Q* # input compound: COc1cc2c(cc1Nc1ncc(C(N)=O)c(N[C@@H](C)c3cccc(F)c3F)n1)CN(C)CC2 ; wanted: its IC50
*A* 0.00249 µM

*Q* # input compound: Cc1cc2[nH]cc(-c3ccc(Nc4ccc(N5CCN(C)CC5)cn4)c4c3CNC4=O)c2cn1 ; wanted: its IC50
*A* < 0.1 µM

*Q* # input compound: C[C@@H]1CN(c2c(NC(=O)c3ccc(=O)n(-c4c(F)cccc4F)n3)ccc3nn(C(C)(C)C(C)(C)C)cc23)C[C@@H]1N ; wanted: its IC50
*A* < 0.1 µM

*Q* # input compound: O=C(Nc1ccc(-c2cc(Nc3ccc(C4CC4)cn3)c3c(=O)[nH]ccc3n2)c(F)c1)C1CCCCC1 ; wanted: its IC50
*A* 0.1 to 1 µM

*Q* # input compound: CN(C)CC1(O)CCCN(c2ccc(Nc3ccc(-c4cnc5cc(F)ccn45)c4c3C(=O)NC4)nc2)C1 (stereo not shown) ; wanted: its IC50
*A* < 0.1 µM

*Q* # input compound: CN1CCN(c2ccc(Nc3ccc(-c4ccnc(C#C[C@H]5CCCO5)c4)c4c3C(=O)NC4)nc2)CC1 ; wanted: its IC50
*A* < 1 µM

*Q* # input compound: Cn1nc(Nc2ccc(-c3cnc4cc(F)ccn34)c3c2C(=O)NC3)cc1C1CCOCC1 ; wanted: its IC50
*A* < 0.1 µM

*Q* # input compound: COc1cc(F)c(-c2cc(Nc3ccc(N4CCC(O)CC4)cn3)c3c(=O)[nH]ccc3n2)cc1C ; wanted: its IC50
*A* 0.1 to 1 µM

---

pIC50 values for UniProt Q92918, compiled from several publications.
pIC50: −log10 of the molar value.

Below: 6 compounds and their reported pIC50.
O=C1NCc2c(-c3cnc4cc(F)ccn34)ccc(Nc3ccc(N4CCO[C@H](CNC5CC5)C4)cn3)c21    > 7.00
C/C(Nc1cnn(C[C@H](C)O)c1)=C1/C(=O)Nc2cnc(-c3cnccc3C)cc21    7.00 to 7.30
O=C1NCc2c(N3CCOCC3)ncc(Nc3ccc(N4CCNCC4)cn3)c21    5.30 to 6.00
CN1CCN(c2ccc(Nc3ccc(-c4ccnc(C5CCOCC5)c4)c4c3C(=O)NC4)nc2)CC1    5.30 to 6.00
O=c1[nH]ccc2cc(-c3c(F)cccc3F)nc(Nc3ccc(N4CCC(O)CC4)cn3)c12    6.00 to 7.00
Cc1csc2c(-c3ccc(Nc4ccc(N5CCC(O)CC5)cn4)c4c3CNC4=O)ccnc12    > 7.00

*Q* Provide the documented pIC50 with UniProt Q92918 as the system for CN1CCN(c2ccc(Nc3ccc(-c4ccnc(N5CC6CCC(C5)O6)c4)c4c3C(=O)NC4)nc2)CC1
*A* 5.30 to 6.00

*Q* Provide the documented pIC50 with UniProt Q92918 as the system for O=C1NCc2c(-c3cnc4cc(F)ccn34)ccc(Nc3ccc([C@@H]4CCOC4)c(CN4CCC[C@H]4CO)n3)c21
*A* > 7.00

*Q* Provide the documented pIC50 with UniProt Q92918 as the system for CC(C)c1nc2c(N3CC4C(N)C4C3)c(NC(=O)c3ccc(=O)n(-c4c(F)cccc4F)n3)ccc2n1C (stereo not drawn)
*A* > 7.00

---

IC50 values for HPK1 (Homo sapiens (Human)), compiled from several publications.

C/C(Nc1cc(C)n(C(C)(C)C#N)n1)=C1/C(=O)Nc2cnc(-c3c(C)cccc3F)cc21    < 50 nM
COc1nc2c(cc1Nc1ncc3cccc(Cc4ccccc4)c3n1)CN(C)CC2    < 0.1 nM
CN1CCN2c3ccc(-c4n[nH]c5cc(C#N)c(-c6cccn7ncnc67)cc45)cc3OCC2C1 (stereo not shown)    ≤ 10 nM

Could you now look at the following molecule, please?
*Q* Provide the documented IC50 with HPK1 (Homo sapiens (Human)) as the system for COc1cccc(C)c1-n1nc2c(-c3ccc(N4CCN(C)CC4)cc3)n[nH]c2cc1=O
*A* 50 to 500 nM
